Observed MIC, system Escherichia coli LA 290 R55.
Your answer is read as µg/mL, so omit the unit and give the number.

NCC1OC(OC2C(N)CC(N)C(OC3OC(CO)C(O)C(N)C3O)C2O)C(N)CC1O (centres unmarked) [DKMB, 3'-deoxykanamycin B, reference compound] | 25

Field: next compound
Input line: Give reported MIC for NCC1CCC(N)C(OC2C(N)CC(N)C(OC3OC(CO)C(O)C(N)C3O)C2O)O1 (centres unmarked) [DKB, 3',4'-dideoxykanamycin B, reference compound] (Escherichia coli LA 290 R55)
Output line: 50

----------
Parameter MIC, tested on Escherichia coli LA 290 R55, listed per item.

Input line: Under Escherichia coli LA 290 R55, report MIC for NC1CC(O)C(CO)OC1OC1C(N)CC(N)C(OC2OC(CO)C(O)C(N)C2O)C1O (stereo not drawn)
Output line: > 100 µg/mL

Input line: Under Escherichia coli LA 290 R55: report MIC of NC1CCC(CO)OC1OC1C(N)CC(N)C(OC2OC(CO)C(O)C(N)C2O)C1O (stereo not drawn) .
Output line: > 100 µg/mL

Input line: GET MIC | system: Escherichia coli LA 290 R55 | item: NC1CC(N)C(OC2OC(CO)C(O)C(N)C2O)C(O)C1OC1OC(CO)C(O)C(O)C1N (stereo not drawn)
Output line: > 100 µg/mL
